Numbers sourced from PubChem BioAssay (NCATS).

Procedure Summary: qHTS for Inhibitors of Plasmodium falciparum (7G8) proliferation (AID 504316); further: nearly all actives have a fitted effect of over 65% in size
Protocol Conditions: P. falciparum 7G8 in erythrocytes, SYBR Green DNA, 72 h; series mostly up to 6.7 µM
Records with an inconclusive call do not appear. Active and inactive are the calls of the source. The call rests on the fitted dose curve; in most records, active means well fitted inhibition curve with a large enough effect; inconclusive means small, poorly fitted or top-dose-only effect; inactive means flat fitted curve, though single readings scatter.
Form entry, call: pick from active, inactive

Request: Recorded test call requested for CCN1C(=O)NC(c2cccc(F)c2)C(C(C)=O)=C1C (centres undefined)
Result: inactive

Request: Recorded test call requested for COC(=O)N1C(c2ccccc2)=Cc2ccccc2C1CC(C)=O (centres undefined)
Result: inactive

Request: Recorded test call requested for CC12C=C(C=Cc3ccc(Br)cc3)C(C)(C1)[C@H](c1ccc(Br)cc1)CC2=O (some centres undefined)
Result: active

Request: Recorded test call requested for COC(=O)CC=C[C@@H](C)[C@@H](C=NOC[C@@H](O)[C@H]1O[C@@H]2OC(C)(C)O[C@H]2[C@@H]1O)OC
Result: inactive

Request: Recorded test call requested for O=C1[C@@H]2[C@H]3[C@H](O)[C@H](O)CC(=NOC[C@@H](O)COCc4ccco4)[C@H]3CC[C@H]2C(=O)N1C[C@@H]1CCCO1
Result: inactive

Request: Recorded test call requested for COC(=O)CC=C[C@H](C)[C@H](Cc1ccccc1Br)OC
Result: inactive

Request: Recorded test call requested for C[C@@H]1C=CCCO[C@]12C(=O)N(Cc1ccc(F)cc1)c1ccccc12
Result: inactive

Request: Recorded test call requested for N#Cc1ccc2c(c1)C[C@]1(CCCCN3C(=O)c4ccccc4C3=O)Oc3c(c(=O)oc4ccccc34)[C@H]2O1
Result: active

Request: Recorded test call requested for O=C1CCCC2=C1[C@H]1O[C@](CCCCN3C(=O)c4ccccc4C3=O)(Cc3ccccc31)O2
Result: active

====

Study Target: Tyrosine-protein phosphatase non-receptor type substrate 1 (Homo sapiens) + Leukocyte surface antigen CD47 (Homo sapiens) (UniProt P78324+Q08722)
Sequence (P78324 whole entry, looked up): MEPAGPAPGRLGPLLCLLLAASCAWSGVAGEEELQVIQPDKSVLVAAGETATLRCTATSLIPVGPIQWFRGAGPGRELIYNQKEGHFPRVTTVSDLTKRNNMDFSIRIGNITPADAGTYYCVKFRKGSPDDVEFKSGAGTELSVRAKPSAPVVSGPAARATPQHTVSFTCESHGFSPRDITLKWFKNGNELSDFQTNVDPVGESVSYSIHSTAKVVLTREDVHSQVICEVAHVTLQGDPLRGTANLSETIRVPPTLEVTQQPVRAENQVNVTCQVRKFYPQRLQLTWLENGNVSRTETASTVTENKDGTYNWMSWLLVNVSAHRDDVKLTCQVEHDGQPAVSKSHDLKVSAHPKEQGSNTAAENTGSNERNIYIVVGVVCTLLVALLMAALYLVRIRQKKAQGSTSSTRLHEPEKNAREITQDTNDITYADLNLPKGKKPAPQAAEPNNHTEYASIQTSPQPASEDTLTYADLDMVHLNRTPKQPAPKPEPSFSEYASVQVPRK
Sequence (Q08722 whole entry, looked up): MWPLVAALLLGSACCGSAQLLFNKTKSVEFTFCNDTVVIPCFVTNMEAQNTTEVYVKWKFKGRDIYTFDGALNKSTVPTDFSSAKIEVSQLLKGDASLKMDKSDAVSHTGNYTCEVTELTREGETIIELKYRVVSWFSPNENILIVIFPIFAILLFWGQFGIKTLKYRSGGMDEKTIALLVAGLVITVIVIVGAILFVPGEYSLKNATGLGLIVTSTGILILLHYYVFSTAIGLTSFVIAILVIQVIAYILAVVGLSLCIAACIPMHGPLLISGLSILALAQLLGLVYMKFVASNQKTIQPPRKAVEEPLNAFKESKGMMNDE
Procedure Summary: CD47-SIRPalpha protein protein interaction - Alpha assay qHTS validation (AID 1347059);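 further: bead proximity luminescence from CD47 binding SIRPalpha after compound preincubation with SIRPalpha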
Protocol Conditions: AlphaScreen CD47-His/biotin-SIRPalpha binding, LOPAC; series mostly up to 38.3 µM
Inconclusive results are not listed. Activity calls are given as the source filed them. The call rests on the fitted dose curve; in most records, active means well fitted inhibition curve with a large enough effect; inconclusive means small, poorly fitted or top-dose-only effect; inactive means flat fitted curve, though single readings scatter.
Form entry, call: pick from 1 (active), -1 (inactive)

Solved entries (count: 4):
{"Compound": "Cc1cccc(/C=C/c2ccccc2)n1", "Assigned Category": -1}
{"Compound": "CN1C2CCCC1CC(NC(=O)c1nn(C)c3ccccc13)C2 (stereo not given)", "Assigned Category": -1}
{"Compound": "N#C/C(=C\\c1ccc(O)c(O)c1)C(=O)Nc1ccccc1", "Assigned Category": -1}
{"Compound": "C[C@H](Cc1ccccc1)Nc1ncnc2c1ncn2[C@@H]1O[C@H](CO)[C@@H](O)[C@H]1O", "Assigned Category": -1}

Okay, now this compound:
Request: Recorded test call requested for O=C1c2ccccc2C(=O)c2c(NCCc3ccc(O)cc3)ccc(NCCc3ccc(O)cc3)c21
Result: 1

====

Procedure Summary: ZIKV-mCherry secondary qHTS for Zika virus inhibitors (AID 1347158)
Protocol Conditions: Vero cells, ZIKV-mCherry infection imaging, 48-72 h; series mostly up to 49.2 µM
Results filed as inconclusive are left out. Activity calls are given as the source filed them. Calls come from the whole dose curve; as a rule, active = well fitted inhibition curve with a large enough effect; inconclusive = small, poorly fitted or top-dose-only effect; inactive = no such curve, though single readings can be large or run the other way.
Form entry, call: pick from active, inactive

Solved entries (count: 7):
{"Molecule": "CCOc1ccc(S(=O)(=O)Nc2cc3c(C(=O)OCc4ccccc4)c(C)oc3c3ccccc23)cc1", "Assigned Category": "inactive"}
{"Molecule": "O=C(OC1Cc2c(O)cc(O)cc2OC1c1cc(O)c(O)c(O)c1-c1c(C2Oc3cc(O)cc(O)c3CC2OC(=O)c2cc(O)c(O)c(O)c2)cc(O)c(O)c1O)c1cc(O)c(O)c(O)c1 (stereo not drawn)", "Assigned Category": "inactive"}
{"Molecule": "O=C(NCc1ccccc1Cl)c1ccc2c(O)c(S(=O)(=O)c3ccccc3)c(=O)[nH]c2c1", "Assigned Category": "inactive"}
{"Molecule": "O=C(NCc1ccc(Oc2ccccc2)cc1)c1nc(-c2cc(Br)c(O)c(Br)c2)no1", "Assigned Category": "active"}
{"Molecule": "O=C(OC1Cc2c(O)cc(O)cc2OC1c1cc(O)c(O)c(O)c1)c1cc(O)c(O)c(O)c1 (stereo not drawn)", "Assigned Category": "inactive"}
{"Molecule": "Cc1ccc(S(=O)(=O)Nc2cc(SCC(=O)O)c(O)c3ccccc23)cc1[N+](=O)[O-]", "Assigned Category": "inactive"}
{"Molecule": "N#Cc1ccc(OCC2CN(Cc3c[nH]c4ccccc34)C(=O)c3c(ccnc3-c3ccc(OCC(=O)O)cc3)O2)cc1 (stereo not drawn)", "Assigned Category": "inactive"}

Request: Recorded test call requested for O=C(O)COc1ccc(-c2nccc3c2C(=O)N(Cc2cccc(C(F)(F)F)c2)CC(COc2cccc(F)c2)O3)cc1 (stereo not drawn)
Result: inactive

====

Tested on: DIV17
Procedure Summary: qHTS profiling for inhibitors of Plasmodium falciparum proliferation (AID 504749); further: nearly all actives have a fitted effect of over 60% in size
Protocol Conditions: P. falciparum in erythrocytes, SYBR Green DNA, 72 h; series mostly up to 28.7 µM
Inconclusive results are not listed. The source made the active and inactive calls. Calls follow the shape of the dose curve; as a rule, active = well fitted inhibition curve with a large enough effect; inconclusive = small, poorly fitted or top-dose-only effect; inactive = flat fitted curve, though single readings scatter.
Form entry, call: pick from active, inactive

Solved entries (count: 4):
{"Compound": "COC(=O)[C@@H]1[C@@H]2C[C@H]3c4[nH]c5ccccc5c4CCN3C[C@@H]2CC[C@@H]1O", "Study Target": "DIV17", "Assigned Category": "inactive"}
{"Compound": "CC(C)C[C@@H](NC(=O)[C@H](Cc1ccccc1)NC(=O)c1cnccn1)B(O)O", "Study Target": "DIV17", "Assigned Category": "active"}
{"Compound": "CCOC(=O)C(CCc1ccccc1)NC1CCc2ccccc2N(CC(=O)O)C1=O (stereo not given)", "Study Target": "DIV17", "Assigned Category": "active"}
{"Compound": "CC(=O)[C@H]1CC[C@H]2C3CC=C4C[C@@H](O)CC[C@]4(C)C3CC[C@]12C (stereo not given in full)", "Study Target": "DIV17", "Assigned Category": "inactive"}

Okay, now this compound:
Request: Recorded test call requested for O=C(CC1NCCC[C@H]1O)Cn1cnc2cc(Br)c(Cl)cc2c1=O (stereo not given in full)
Result: active

====

Procedure Summary: KB-8-5-11 Cancer Cell Toxicity qHTS against the NCATS CANVASS Library (AID 1347364); further: nearly all actives have a fitted effect of over 75% in size
Protocol Conditions: KB-8-5-11 MDR cells viability, CellTiter-Glo, 72 h; series mostly up to 46.1 µM
Inconclusive results are not listed. The source made the active and inactive calls. The call rests on the fitted dose curve; in most records, active means well fitted cell-killing curve with a large enough effect; inconclusive means small, poorly fitted or top-dose-only effect; inactive means flat fitted curve, though single readings scatter. Numbered stars: 1 amine (or outer) side, 2 acyl side, 3 side chain; on linkers, the order of the positions; unused ones are H or OH. Square brackets hold non-standard residues; d marks the D form. Peptide text beside a SMILES is read from it. ξ: configuration not given here. X4 = O=C(C1CC2(c3ccc(O)cc3)c3ccccc3NC2N1[*:1])[*:2]; ξW = NC(Cc1c[nH]c2ccccc12)C(=O)O; ξY = NC(Cc1ccc(O)cc1)C(=O)O
Form entry, call: pick from active, inactive

Solved entries (count: 2):
{"Compound": "O=C(O)[C@@]12CO[C@@]3(O)C4CCN(CC[C@H]31)[C@H]4c1c2[nH]c2ccccc12", "Assigned Category": "inactive"}
{"Compound": "CC(=O)O[C@@H]1C=C2C(=O)OC[C@]2(O)[C@@]2(C)CCCC(C)(C)[C@H]12", "Assigned Category": "active"}

Request: Recorded test call requested for CCCCCCC[C@@H](C/C=C/CCC(=O)NCCc1c[nH]c2ccccc12)OC
Result: inactive

Request: Recorded test call requested for CC1C(=O)C23CCC1C[C@@]21O[C@H]2C(C)(C)C=CC(=O)[C@@]23COC1=O (some centres not stated)
Result: inactive

Request: Recorded test call requested for CC[C@H](C)[C@H](NC(=O)C(Cc1ccc(O)cc1)NC(=O)C(Cc1c[nH]c2ccccc12)NC(=O)[C@H](C)N)C(=O)N1C(C(=O)NC(Cc2ccc(O)cc2)C(=O)O)CC2(c3ccc(O)cc3)c3ccccc3NC12 (some centres not stated) (H-A[ξW][ξY]I[X4][ξY]-OH)
Result: inactive

Request: Recorded test call requested for C[C@@H]1O[C@@H](Oc2c(-c3ccc(O)cc3)oc3cc(O)cc(O)c3c2=O)[C@H](O)[C@H](O)[C@H]1O
Result: inactive

Request: Recorded test call requested for COc1cc(O)c2c3c(c(O)cc(C)c13)C(=O)OC2
Result: inactive

Request: Recorded test call requested for COc1ccc([C@@H]2c3cc(OC)c(OC)cc3C(=O)C(C)C2C)cc1OC (some centres not stated)
Result: inactive

Request: Recorded test call requested for C=C1/C=C\C(CCC)=C\c2csc(n2)C(C)NC(=O)C[C@@]2(CC(=O)O)CCC(=C)[C@H](C1)S2 (some centres not stated)
Result: inactive

====

Procedure Summary: A2780 Cisplatin Sensitive Ovarian Cancer Cell Toxicity qHTS against the NCATS CANVASS Library (AID 1347353); further: nearly all actives have a fitted effect of over 60% in size
Protocol Conditions: A2780 ovarian cancer viability, ATPLite luminescence, 72 h; series mostly up to 46.1 µM
Results filed as inconclusive are left out. Activity calls are given as the source filed them. The call rests on the fitted dose curve; in most records, active means well fitted cell-killing curve with a large enough effect; inconclusive means small, poorly fitted or top-dose-only effect; inactive means flat fitted curve, though single readings scatter.
Form entry, call: pick from 1 = active, 0 = inactive

Solved entries (count: 4):
{"Molecule": "C=C1C[C@@]23C=CC(=O)[C@@](C)(CCC(=O)Nc4c(O)ccc(C(=O)O)c4O)C2C[C@@H]1CC3 (stereo not given in full)", "Assigned Category": 0}
{"Molecule": "CCCCCCCCCCCCCCC[C@H](O)C[C@@H](O)C[C@@H](O)C[C@@H](O)C[C@@H](O)C[C@H]1CC=CC(=O)O1", "Assigned Category": 1}
{"Molecule": "COC1C(O)C(OC(N)=O)C(Oc2ccc3c(O)c(NC(=O)c4ccc(O)c(CC=C(C)C)c4)c(=O)oc3c2C)OC1(C)C (stereo not given)", "Assigned Category": 0}
{"Molecule": "C/C=C/c1cc(OC)c2c(c1)[C@@H](C)[C@H](c1ccc(O)c(OC)c1)O2", "Assigned Category": 0}

Request: Recorded test call requested for CN1C(=O)C2C(N=CN2C)N(C)C1=O (stereo not given)
Result: 0
